Please provide measured PBM binding z-score for the entries that follow.
Tested on: PPARg:RXRa 30nM:10nM, anti-RXR (NR concentration 30 nM, RXRa partner concentration 10 nM)
Test: PBM binding z-score (relative to random genomic background probes); higher = stronger binding; sequences stand for … in GC…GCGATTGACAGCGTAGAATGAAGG

Solved entries (count: 3):
querySequence: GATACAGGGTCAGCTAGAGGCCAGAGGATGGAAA
measured: 1.02

querySequence: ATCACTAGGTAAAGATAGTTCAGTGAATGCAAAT
measured: 0.585

querySequence: ATATGTAGGTTATTGGGTCATTCAGTTTGCGCAT
measured: 3.93

Would you mind listing PBM binding z-score for each of the following sequences?
1. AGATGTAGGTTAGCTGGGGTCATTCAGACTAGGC
2. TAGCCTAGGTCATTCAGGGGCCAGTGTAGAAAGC
3. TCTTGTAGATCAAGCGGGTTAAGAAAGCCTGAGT

OUT:
2.17
0.00175
2.23
